Assay: compounds binding Alexa647 anti-His antibody – biochemical, small-molecule microarray, 635 nm fluorescence, artefact control for SMM control protein annotation, primary screen (AID 1128);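 further: score merges feature fluorescence with signal-to-noise for each printed compound spot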
Details: higher = more signal
composite z-score vs 0.4: at or above is yes, below is no.

Would you please look over these solved cases?
[
  {
    "compound": "O=C(NC1CC1)[C@@H]1c2ccccc2C(=O)N(CC23CC4CC(CC(C4)C2)C3)[C@H]1c1ccc(CO)cc1",
    "class.name": "yes"
  },
  {
    "compound": "C=C(C)[C@@H]1CC=C(C(O)C2C=CC3C(=O)N(C)C(=O)C3N2Nc2ccc([N+](=O)[O-])cc2[N+](=O)[O-])CC1 (stereo not given in full)",
    "class.name": "yes"
  },
  {
    "compound": "COC(=O)[C@@]1(Cc2ccc(OC)cc2)[C@H]2c3cc(C(=O)N(C)C)[nH]c3C[C@H]2CN1C(=O)c1ccccc1",
    "class.name": "no"
  },
  {
    "compound": "C=CC[C@@]1(C(=O)OC)N=C(c2ccc(OCCCO)cc2)O[C@@H]1c1ccccc1N=[N+]=[N-]",
    "class.name": "yes"
  },
  {
    "compound": "C=CC1c2cc(O)c(OC)cc2CCN1C (stereo not given)",
    "class.name": "yes"
  }
]

Q) Is composite z-score at least 0.4? Consider CCOC(=O)C1=C[C@@H](C(C)(C)C)N(S(=O)(=O)c2ccc(C)cc2)[C@H]1c1ccc(C#N)cc1
A) yes

Q) Reported composite z-score at or above 0.4? COC(=O)[C@@]1(Cc2ccccc2)[C@H]2c3cc(C(=O)N(C)C)n(Cc4ccc(C(F)(F)F)nc4)c3C[C@H]2CN1C(=O)c1ccccc1
A) no

Q) # bool: composite z-score of COc1ccc(C(O)C2C=CC3C(=O)N(c4ccccc4)C(=O)C3N2Nc2ccc(C#N)cc2)cc1OCc1ccccc1 (stereo not given) >= 0.4
A) yes

Q) Confirm if composite z-score reported for the compound Cc1ccc(S[C@]2(C(=O)NC(C)C)CC(=O)N(C3CCCCC3)[C@@H]2c2ccc(CO)cc2I)cc1 is 0.4 or above.
A) no

Q) Check this compound for composite z-score at or above 0.4: CCCN1C(=O)[C@@]2(c3ccc([N+](=O)[O-])cc3)CC(=O)N(CC34CC5CC(CC(C5)C3)C4)[C@@H]2c2ccc(CO)cc21
A) no
